Source of measurements: the supplement of paper PMC5998384

# Test system: HeLa Kyoto
# assay details: thermal stability score vs G1/S (z-score of summed log2 fold changes over temperatures); higher = more thermally stable than in G1/S
# condition notes: cell cycle stage: early G1 (4.5 h after nocodazole release)
thermal stability score: recorded values

[
  {
    "chain": "MSLRKQTPSDFLKQIIGRPVVVKLNSGVDYRGVLACLDGYMNIALEQTEEYVNGQLKNKYGDAFIRGNNVLYISTQKRRM [LSM6]",
    "thermal stability score": -1.66
  },
  {
    "chain": "MSKSKDDAPHELESQFILRLPPEYASTVRRAVQSGHVNLKDRLTIELHPDGRHGIVRVDRVPLASKLVDLPCVMESLKTIDKKTFYKTADICQMLVSTVDGDLYPPVEEPVASTDPKASKKKDKDKEKKFIWNHGITLPLKNVRKRRFRKTAKKKYIESPDVEKEVKRLLSTDAEAVSTRWEIIAEDETKEAENQGLDISSPGMSGHRQGHDSLEHDELREIFNDLSSSSEDEDETQHQDEEDINIIDTEEDLERQLQDKLNESDEQHQENEGTNQLVMGIQKQIDNMKGKLQETQDRAKRQEDLIMKVENLALKNRFQAVLDELKQKEDREKEQLSSLQEELESLLEK [TAF7]",
    "thermal stability score": 1.09
  },
  {
    "chain": "MSGSFELSVQDLNDLLSDGSGCYSLPSQPCNEVTPRIYVGNASVAQDIPKLQKLGITHVLNAAEGRSFMHVNTNANFYKDSGITYLGIKANDTQEFNLSAYFERAADFIDQALAQKNGRVLVHCREGYSRSPTLVIAYLMMRQKMDVKSALSIVRQNREIGPNDGFLAQLCQLNDRLAKEGKLKP [DUSP3]",
    "thermal stability score": 0.0996
  }
]

* * *

# Test system: HeLa Kyoto
# assay details: solubility change mitosis vs G1/S (difference of NP-40 vs SDS log2 ratios) (log2 ratio difference); higher = more soluble in mitosis

[
  {
    "chain": "MSFLLPKLTSKKEVDQAIKSTAEKVLVLRFGRDEDPVCLQLDDILSKTSSDLSKMAAIYLVDVDQTAVYTQYFDISYIPSTVFFFNGQHMKVDYGSPDHTKFVGSFKTKQDFIDLIEVIYRGAMRGKLIVQSPIDPKNIPKYDLLYQDI [TXNL4B]",
    "solubility change mitosis (log2)": 0.00266
  },
  {
    "chain": "MGLEDEQKMLTESGDPEEEEEEEEELVDPLTTVREQCEQLEKCVKARERLELCDERVSSRSHTEEDCTEELFDFLHARDHCVAHKLFNNLK [UQCRH]",
    "solubility change mitosis (log2)": 0.641
  },
  {
    "chain": "MDLSELERDNTGRCRLSSPVPAVCRKEPCVLGVDEAGRGPVLGPMVYAICYCPLPRLADLEALKVADSKTLLESERERLFAKMEDTDFVGWALDVLSPNLISTSMLGRVKYNLNSLSHDTATGLIQYALDQGVNVTQVFVDTVGMPETYQARLQQSFPGIEVTVKAKADALYPVVSAASICAKVARDQAVKKWQFVEKLQDLDTDYGSGYPNDPKTKAWLKEHVEPVFGFPQFVRFSWRTAQTILEKEAEDVIWEDSASENQEGLRKITSYFLNEGSQARPRSSHRYFLERGLESATSL [RNASEH2A]",
    "solubility change mitosis (log2)": -0.012
  },
  {
    "chain": "MEGGGGSGNKTTGGLAGFFGAGGAGYSHADLAGVPLTGMNPLSPYLNVDPRYLVQDTDEFILPTGANKTRGRFELAFFTIGGCCMTGAAFGAMNGLRLGLKETQNMAWSKPRNVQILNMVTRQGALWANTLGSLALLYSAFGVIIEKTRGAEDDLNTVAAGTMTGMLYKCTGGLRGIARGGLTGLTLTSLYALYNNWEHMKGSLLQQSL [TIMM23]",
    "solubility change mitosis (log2)": -0.145
  },
  {
    "chain": "MGSSKKVTLSVLSREQSEGVGARVRRSIGRPELKNLDPFLLFDEFKGGRPGGFPDHPHRGFETVSYLLEGGSMAHEDFCGHTGKMNPGDLQWMTAGRGILHAEMPCSEEPAHGLQLWVNLRSSEKMVEPQYQELKSEEIPKPSKDGVTVAVISGEALGIKSKVYTRTPTLYLDFKLDPGAKHSQPIPKGWTSFIYTISGDVYIGPDDAQQKIEPHHTAVLGEGDSVQVENKDPKRSHFVLIAGEPLREPVIQHGPFVMNTNEEISQAILDFRNAKNGFERAKTWKSKIGN [PIR]",
    "solubility change mitosis (log2)": -0.0437
  },
  {
    "chain": "MFRAAAPGQLRRAASLLRFQSTLVIAEHANDSLAPITLNTITAATRLGGEVSCLVAGTKCDKVAQDLCKVAGIAKVLVAQHDVYKGLLPEELTPLILATQKQFNYTHICAGASAFGKNLLPRVAAKLEVAPISDIIAIKSPDTFVRTIYAGNALCTVKCDEKVKVFSVRGTSFDAAATSGGSASSEKASSTSPVEISEWLDQKLTKSDRPELTGAKVVVSGGRGLKSGENFKLLYDLADQLHAAVGASRAAVDAGFVPNDMQVGQTGKIVAPELYIAVGISGAIQHLAGMKDSKTIVAINKDPEAPIFQVADYGIVADLFKVVPEMTEILKKK [ETFA]",
    "solubility change mitosis (log2)": -0.02
  }
]

* * *

# Tested on: HeLa Kyoto
# assay details: solubility in G1/S (NP-40 vs SDS abundance) (log2 ratio); higher = more soluble
# condition notes: cell cycle stage: G1/S
Given measured solubility in G1/S (log2), output 1 (yes) if it is greater than or equal to 0.3 and 0 (no) if not.

[
  {
    "chain": "MGWSQDLFRALWRSLSREVKEHVGTDQFGNKYYYIPQYKNWRGQTIREKRIVEAANKKEVDYEAGDIPTEWEAWIRRTRKTPPTMEEILKNEKHREEIKIKSQDFYEKEKLLSKETSEELLPPPVQTQIKGHASAPYFGKEEPSVAPSSTGKTFQPGSWMPRDGKSHNQ [NDUFAF2]",
    "qualitative label": "1 (yes)"
  },
  {
    "chain": "MVKLTAELIEQAAQYTNAVRDRELDLRGYKIPVIENLGATLDQFDAIDFSDNEIRKLDGFPLLRRLKTLLVNNNRICRIGEGLDQALPCLTELILTNNSLVELGDLDPLASLKSLTYLSILRNPVTNKKHYRLYVIYKVPQVRVLDFQKVKLKERQEAEKMFKGKRGAQLAKDIARRSKTFNPGAGLPTDKKKGGPSPGDVEAIKNAIANASTLAEVERLKGLLQSGQIPGRERRSGPTDDGEEEMEEDTVTNGS [SNRPA1]",
    "qualitative label": "0 (no)"
  },
  {
    "chain": "MDVLAEANGTFALNLLKTLGKDNSKNVFFSPMSMSCALAMVYMGAKGNTAAQMAQILSFNKSGGGGDIHQGFQSLLTEVNKTGTQYLLRMANRLFGEKSCDFLSSFRDSCQKFYQAEMEELDFISAVEKSRKHINTWVAEKTEGKIAELLSPGSVDPLTRLVLVNAVYFRGNWDEQFDKENTEERLFKVSKNEEKPVQMMFKQSTFKKTYIGEIFTQILVLPYVGKELNMIIMLPDETTDLRTVEKELTYEKFVEWTRLDMMDEEEVEVSLPRFKLEESYDMESVLRNLGMTDAFELGKADFSGMSQTDLSLSKVVHKSFVEVNEEGTEAAAATAAIMMMRCARFVPRFCADHPFLFFIQHSKTNGILFCGRFSSP [SERPINB6]",
    "qualitative label": "0 (no)"
  },
  {
    "chain": "MAPRGRKRKAEAAVVAVAEKREKLANGGEGMEEATVVIEHCTSURVYGRNAAALSQALRLEAPELPVKVNPTKPRRGSFEVTLLRPDGSSAELWTGIKKGPPRKLKFPEPQEVVEELKKYLS [SELH]",
    "qualitative label": "0 (no)"
  },
  {
    "chain": "MSGCDAREGDCCSRRCGAQDKEHPRYLIPELCKQFYHLGWVTGTGGGISLKHGDEIYIAPSGVQKERIQPEDMFVCDINEKDISGPSPSKKLKKSQCTPLFMNAYTMRGAGAVIHTHSKAAVMATLLFPGREFKITHQEMIKGIKKCTSGGYYRYDDMLVVPIIENTPEEKDLKDRMAHAMNEYPDSCAVLVRRHGVYVWGETWEKAKTMCECYDYLFDIAVSMKKVGLDPSQLPVGENGIV [APIP]",
    "qualitative label": "0 (no)"
  },
  {
    "chain": "MAPNIYLVRQRISRLGQRMSGFQINLNPLKEPLGFIKVLEWIASIFAFATCGGFKGQTEIQVNCPPAVTENKTVTATFGYPFRLNEASFQPPPGVNICDVNWKDYVLIGDYSSSAQFYVTFAVFVFLYCIAALLLYVGYTSLYLDSRKLPMIDFVVTLVATFLWLVSTSAWAKALTDIKIATGHNIIDELPPCKKKAVLCYFGSVTSMGSLNVSVIFGFLNMILWGGNAWFVYKETSLHSPSNTSAPHSQGGIPPPTGI [SYPL1]",
    "qualitative label": "0 (no)"
  }
]
